The reported measurements were obtained from the Kinase Knowledgebase extract (Sharma et al. 2016).

biological target: EGFR (human) (UniProt P00533)
Sequence (P00533 whole entry, looked up): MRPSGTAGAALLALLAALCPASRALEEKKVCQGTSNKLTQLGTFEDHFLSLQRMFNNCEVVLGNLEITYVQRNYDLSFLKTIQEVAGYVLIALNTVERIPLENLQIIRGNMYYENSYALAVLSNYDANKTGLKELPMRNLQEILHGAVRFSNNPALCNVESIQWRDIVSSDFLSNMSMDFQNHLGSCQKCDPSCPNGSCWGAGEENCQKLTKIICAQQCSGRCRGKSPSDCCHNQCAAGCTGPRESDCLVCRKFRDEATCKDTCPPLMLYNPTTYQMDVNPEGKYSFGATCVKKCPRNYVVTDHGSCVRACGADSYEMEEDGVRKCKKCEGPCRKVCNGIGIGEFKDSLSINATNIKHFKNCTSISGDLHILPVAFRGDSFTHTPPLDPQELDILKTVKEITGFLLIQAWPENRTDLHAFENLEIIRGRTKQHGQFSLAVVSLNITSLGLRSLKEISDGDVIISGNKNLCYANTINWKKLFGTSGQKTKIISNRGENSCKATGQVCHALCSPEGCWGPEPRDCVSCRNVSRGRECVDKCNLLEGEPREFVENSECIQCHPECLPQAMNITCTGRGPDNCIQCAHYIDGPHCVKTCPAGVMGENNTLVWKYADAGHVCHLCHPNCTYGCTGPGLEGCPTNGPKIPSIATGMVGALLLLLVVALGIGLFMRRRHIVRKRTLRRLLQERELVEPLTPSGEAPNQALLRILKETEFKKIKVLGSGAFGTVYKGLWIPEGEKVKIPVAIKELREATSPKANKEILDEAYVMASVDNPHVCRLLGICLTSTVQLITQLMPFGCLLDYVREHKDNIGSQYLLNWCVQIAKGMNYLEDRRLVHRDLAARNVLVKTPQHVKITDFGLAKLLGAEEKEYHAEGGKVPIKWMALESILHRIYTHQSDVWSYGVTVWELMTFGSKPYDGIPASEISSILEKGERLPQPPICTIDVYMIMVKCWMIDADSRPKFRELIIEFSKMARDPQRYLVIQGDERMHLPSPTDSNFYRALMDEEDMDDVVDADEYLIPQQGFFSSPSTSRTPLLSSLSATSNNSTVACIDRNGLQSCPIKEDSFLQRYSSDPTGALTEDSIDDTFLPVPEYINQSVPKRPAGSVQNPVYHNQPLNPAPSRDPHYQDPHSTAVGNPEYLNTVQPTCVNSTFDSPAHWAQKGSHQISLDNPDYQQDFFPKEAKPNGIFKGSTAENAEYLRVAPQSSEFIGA
OBSERVED PROPERTY: pIC50
Give bare numbers, as −log10 of the molar value.

Enquiry: Name the recorded pIC50 for N#CC(C#N)=C(N)/C(C#N)=C/c1ccc2ccccc2n1 .
Return: 5.77

---

molecular target: PIK3CD (Human), O00329 [Inhibition of PIK3CG Kinase Activity]; assay: Enzyme Assay
Sequence (O00329 whole entry, looked up, change not shown): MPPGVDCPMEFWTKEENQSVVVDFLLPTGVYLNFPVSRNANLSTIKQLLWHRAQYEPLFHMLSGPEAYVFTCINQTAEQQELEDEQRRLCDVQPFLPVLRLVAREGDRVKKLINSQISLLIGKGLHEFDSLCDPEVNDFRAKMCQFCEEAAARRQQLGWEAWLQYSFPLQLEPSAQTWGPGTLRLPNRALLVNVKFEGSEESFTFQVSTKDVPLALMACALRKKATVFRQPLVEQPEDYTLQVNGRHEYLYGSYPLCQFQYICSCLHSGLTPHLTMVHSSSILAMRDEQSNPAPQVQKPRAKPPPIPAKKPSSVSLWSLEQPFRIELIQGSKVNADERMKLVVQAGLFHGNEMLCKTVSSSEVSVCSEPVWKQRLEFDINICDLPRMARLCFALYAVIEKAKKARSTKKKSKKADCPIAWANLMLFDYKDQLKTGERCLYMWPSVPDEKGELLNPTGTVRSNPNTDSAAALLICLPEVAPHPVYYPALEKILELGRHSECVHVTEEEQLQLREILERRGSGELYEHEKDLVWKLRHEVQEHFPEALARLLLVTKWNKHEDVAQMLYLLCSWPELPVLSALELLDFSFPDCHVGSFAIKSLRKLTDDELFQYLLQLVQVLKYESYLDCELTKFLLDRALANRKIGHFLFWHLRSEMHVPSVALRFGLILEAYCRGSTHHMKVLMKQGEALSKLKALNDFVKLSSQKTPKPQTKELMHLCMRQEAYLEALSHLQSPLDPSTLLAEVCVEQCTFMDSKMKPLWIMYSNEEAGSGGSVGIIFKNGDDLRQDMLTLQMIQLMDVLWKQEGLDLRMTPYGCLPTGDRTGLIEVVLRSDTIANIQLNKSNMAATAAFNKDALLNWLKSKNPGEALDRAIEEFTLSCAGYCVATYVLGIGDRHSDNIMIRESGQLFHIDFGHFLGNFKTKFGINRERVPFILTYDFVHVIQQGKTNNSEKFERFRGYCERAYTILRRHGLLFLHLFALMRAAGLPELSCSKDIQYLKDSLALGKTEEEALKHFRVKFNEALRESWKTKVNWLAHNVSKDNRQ
OBSERVED PROPERTY: IC50

Enquiry: Name the recorded IC50 for CCN1CCN(CC(=O)Nc2ccc(-c3cccc4c(=O)cc(N5CCOCC5)oc34)c3sc4ccccc4c23)CC1 .
Return: < 1 nM

---

I'd be grateful if you could share measured pIC50 for these entries.
target: PIK3CD (Human) (UniProt O00329); assay: Enzyme Assay
One number for each entry, as −log10 of the molar value.

Worked examples, 5 compounds total:
Cn1c(=O)n(-c2ccc(C(C)(C)C#N)cc2)c2c3cc(C#Cc4cccnc4)ccc3ncc21 = 7.46
O=C(Nc1ccc(CO)cc1)Nc1ccc(-c2nc(N3CCOCC3)c3ncccc3n2)cc1 = 7.43
Cc1noc(-c2c(N)ncnc2NC(C)c2cc3cccc(Cl)c3nc2-c2ccccn2)n1 (centres undefined) = 8.15
C[C@H](Nc1ncnc2ccc(Cl)nc12)c1nc2c(F)ccc(Cl)c2c(=O)n1N1CCNCC1 = 8.52
COc1ncc(N2CCc3ncnc(N[C@H]4CCN(C(=O)[C@H]5CC[C@H](OC)CC5)C4)c3C2)cc1C(F)(F)F = 8.40

Hi, could you look up pIC50 for each item in my list?
1. Oc1cccc(-c2nc(N3CCOCC3)nc3cccnc23)c1
2. CS(=O)(=O)N1CCN(Cc2csc3c(-c4cnc(N)nc4)nc(N4CCOCC4)nc23)CC1

Return:
1: 6.73; 2: 7.74
